pKi: −log10 of the molar value.
Entries below carry reported pKi on hCA IV (Homo sapiens, UniProt P22748).
Sequence (P22748 19-312): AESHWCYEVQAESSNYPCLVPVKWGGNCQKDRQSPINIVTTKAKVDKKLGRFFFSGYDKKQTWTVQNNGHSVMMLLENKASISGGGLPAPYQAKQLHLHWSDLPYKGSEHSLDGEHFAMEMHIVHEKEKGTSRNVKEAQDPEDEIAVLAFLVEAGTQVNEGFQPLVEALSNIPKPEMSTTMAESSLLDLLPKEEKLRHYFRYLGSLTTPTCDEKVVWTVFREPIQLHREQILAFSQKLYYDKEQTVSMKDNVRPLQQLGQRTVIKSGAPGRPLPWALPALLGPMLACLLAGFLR
recordedMetric: pKi

A selection of reference data follows.
NS(=O)(=O)c1ccc(N2CC[C@@H](NC(=O)Nc3ccc4c(c3)OCCO4)C2)nc1 [15a]	5.45
NS(=O)(=O)c1ccc(N2CC[C@@H](NC(=S)Nc3ccc(C4c5ccc(O)cc5Oc5cc(O)ccc54)c(C(=O)O)c3)C2)nc1 [17a]	6.07
COc1ccccc1NC(=O)N[C@@H]1CCN(c2ccc(S(N)(=O)=O)cn2)C1 [18a]	5.29

[a] NS(=O)(=O)c1ccc(N2CCC(NC(=O)Nc3ccc(Cl)c(C(F)(F)F)c3)C2)nc1 (stereo in doubt) [10b]
[b] NS(=O)(=O)c1cccc(NC(=S)N[C@@H]2CCN(c3ccccn3)C2)c1 [36a]
Hey, which is lower on measured pKi, a or b ? Label of pick, please.
a
